Reference source for all entries: patent US20240101645A1

# system: SARS-CoV-2 S on pseudovirions (Wuhan Hu-1 / IL1/2020, last 18 amino acids removed) (SARS-CoV-2, UniProt P0DTC2 14-1273)
# experiment notes: cell-based or functional assay
Assign Mean IC80, pSV neutralization to each entry below.

Name the reported Mean IC80, pSV neutralization value associated with the binder COV_2025 (antibody, V domains shown, human IgG1) VH: QVHLVQSGAEVKKPGASVKVSCKVSGYTLVELSVHWVRQAPAKGLEWIGGFDPEDGETIYAQKFQGRVTMTEDTSTDTAYMELTNLRSEDTAVYYCVTSQPFVSPNWFDPWGQGTLVTVSS VL: QSALTQPASVSGSPGQSITISCTGTSRDVGAYNYVSWYQQHPGKAPKLMIYEVTTRPSGVSNRFSGSKSGNTASLTISGLQAEDEADYYCSSYTGSRTLVFGTGTKVTVL
0.49 µg/ml

Let us now turn to COV_1056 (antibody, V domains shown) VH: QVQLVESGGGVVQPGTSLRLSCEASGFTFSAYGMHWVRQAPGKGLEWVAISRNDGTTKYYADSVKGRLTISRDNSKNTLYLQMNSLTSEDTAVYYCANQCGGGCSVDSWGQGTLVTVSS VL: QAVVTQEASLTVSPGGTVTLTCGSSTGSVTSGHAPYWFQQKPGQAPRTLIFDTTHKHSWTPARFSGSLLGGKAALTLSGAQPEDEAEYYCLLSFGGAHVFGTGTKVTVLG
≥ 25 µg/ml

Please answer likewise for COV_2057 (antibody, V domains shown, human IgG1) VH: EVQLVQSGAEVKKPGESLKISCKGSGYSFISYWIAWVRQMPGKGLEWMGIIYPGDSDTTYSPSFQGQVTISADKSISTAYLQWSSLKASDTAIYYCARLLYYSDSSPLDSWGQGTLVTVSS VL: DIQMTQSPSSLSASVGDRVTITCRASQSISTYLNWYQQKPGKAPNLLIYAASSLQSGVPSRFSGSGSGTDFTLTISSLQPEDFATYYCQQSHSTPRTFGPGTKVDIK
8.99 µg/ml

Next binder: COV_1046 (antibody, V domains shown) VH: QVQLVQSGAEVQKPGASVKVSCKASGDTFSYSYVHWVRQAPGHGLEWMGIINPSNGDTNYTQNFQGRVTMTSDTSTSTVLLELSSLTSDDTAVYYCARAPDQYFDYWGQGSPVTVSA VL: DIVMTQTPLSSPVTLGQPASISCRSSESLVHSDGNTYLSWLQQRPGQPPRLLIYRVSNRFSGVPDRFSGSGAGTDFTLKISRVEAEDVGVYYCMQAKDFPRTFGQGTKVEIK
≥ 25 µg/ml

# iterate: COV_2004 (antibody, V domains shown, human IgG1) VH: QVQLVQSGAEVKKPGASVKVSCKASGYTFTGYYMHWVRQAPGQGLEWMGRINPSSGGTNYAQKFQGRVTMTRDTSISTAYMELSSLRSDDTAVYYCATDGDDGENWFDPWGQGTLVIVSS VL: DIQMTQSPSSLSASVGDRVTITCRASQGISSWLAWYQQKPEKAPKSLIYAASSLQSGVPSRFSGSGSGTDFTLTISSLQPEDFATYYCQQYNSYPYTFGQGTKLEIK
3.64 µg/ml

# repeat for COV_1045 (antibody, V domains shown) VH: QVHLVQSGAEVQKPGASVKISCKASGDTLSDSYVHWVRQAPGSGLEWMGIINTRDGDTNYTHQFQDRVMMTTDTSTSTVFLELFSLTSEDTAVYYCARAPDQYFDYWGQGSPVTVSA VL: DIVMTQTPLSSPVTLGQPASISCRSSESLVHSNGNTYLSWLQQRPGQPPRLLIYRVSNRFSGVPDRFSGSGAGTEFTLKISRVEAEDVGVYYCMQARHFPRTFGQGTKVEIK
≥ 25 µg/ml

Proceed to COV_2172 (SEQ ID NO:872/877) (antibody, V domains shown) VH: EVQLVESGGGVVQPGRSLRLSCAPSGFTFSTYAMHWVRQAPGKGLEWVAVISYDGSIKYYADSVKGRFTISRDNTMNTVFLQMNSLRAEDTAVYFCAKGGERWELFTSFDYWGQGTQVTVSS VL: QSALTQPRSVSGSPGQSVTISCTGTSSDVGGYNYVSWYQQHPGKAPKLMIYDVSKRPSGVPDRFSGSKSGNTASLTISGLQAEDEADYYCCSYAGSYTFVFGGGTKLTVLG
≥ 25 µg/ml

What do you have for COV_2172 (SEQ ID NO:442/447) (antibody, V domains shown) VH: EVQLVESGGGVVQPGRSLRLSCAPSGFTFSTYAMHWVRQAPGKGLEWVAVISYDGSIKYYADSVKGRFTISRDNTMNTVFLQMNSLRAEDTAVYFCAKGGERWELFTSFDYWGQGTQVTVSS VL: QSALTQPRSVSGSPGQSVTISCTGTSSDVGGYNYVSWYQQHPGKAPKLMIYDVSKRPSGVPDRFSGSKSGNTASLTISGLQAEDEADYYCCSYAGSYTFVFGGGTKLTVL ?
≥ 25 µg/ml

Please do the same for COV_2035 (antibody, V domains shown, human IgG1) VH: QVQLVQSGAEVKKPGASVKVSCKVSGYTLPELSIHWVRQAPGKGLEWLGGFDPEDGKIIYAQKFQGRVTMTEDTSTDTAYMELSSLRSEDTAVYYCATSPAVVERGWFDPWGQGTLVTVSS VL: QSALTQPPSASGSPGQSVTISCTGTSSDVGGYNYVSWYQQHPGKAPKLMIYEVSKRPSGVPDRFSGSKSGNMASLTVSGLQAEDEANYYCSSYAGSKRVFGGGTKLTVL as well.
≥ 25 µg/ml

Now consider COV_2056 (SEQ ID NO:792/797) (antibody, V domains shown) VH: EVQLVESGGGVVQPGRSLRLSCAASGFTFSIYGMHWVRQAPGKGLEWVALISYDGTNKYYADSVKGRFSISRDDSKNTLYLQMNSLRPEDTAVYYCAKVLMMGDSSGFSLGDAFDIWGQGTMVTVSS VL: DIQMTQSPSSVSASVGDRVTITCRASQGISNWLAWYQQKPGKAPKLLIYAASSLQSGVPSRFSGSVSGTDFTLTISSLQPEDFATYYCQQANSFPLTFGGGTKVDIKR and answer again.
≥ 25 µg/ml
